Please go through the items and note down their Kd.
# Assayed system: mouse Siglec-2-Fc-Avi (CD22) (Mus musculus, UniProt P35329)
# Sequence (P35329 22-708 limits assumed): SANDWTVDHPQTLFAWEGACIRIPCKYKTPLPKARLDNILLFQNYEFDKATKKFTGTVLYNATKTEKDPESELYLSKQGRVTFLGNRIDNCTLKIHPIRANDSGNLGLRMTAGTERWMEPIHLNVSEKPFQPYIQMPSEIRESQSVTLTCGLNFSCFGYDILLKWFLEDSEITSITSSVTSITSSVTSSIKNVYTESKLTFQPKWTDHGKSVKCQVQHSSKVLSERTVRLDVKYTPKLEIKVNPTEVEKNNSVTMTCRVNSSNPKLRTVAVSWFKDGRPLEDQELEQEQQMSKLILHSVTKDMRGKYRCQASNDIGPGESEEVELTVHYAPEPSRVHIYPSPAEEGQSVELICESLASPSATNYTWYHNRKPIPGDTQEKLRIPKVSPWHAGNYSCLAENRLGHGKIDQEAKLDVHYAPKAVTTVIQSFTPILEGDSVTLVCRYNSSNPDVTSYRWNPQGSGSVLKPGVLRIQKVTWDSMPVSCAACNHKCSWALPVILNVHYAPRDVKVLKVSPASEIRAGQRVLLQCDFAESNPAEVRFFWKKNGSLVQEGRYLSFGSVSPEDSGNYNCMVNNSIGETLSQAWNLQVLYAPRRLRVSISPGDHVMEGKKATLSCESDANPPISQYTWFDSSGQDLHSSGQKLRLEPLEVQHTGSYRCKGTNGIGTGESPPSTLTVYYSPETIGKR

Before answering, review these 3 worked examples.
C#CCOCCCCCCO[C@]1(C(=O)O)C[C@H](O)[C@@H](NC(=O)CO)[C@H]([C@H](O)[C@H](O)CNC(=O)Cc2ccc(Cl)c(C(F)(F)F)c2)O1	1000 to 10000 nM
C#CCOc1ccc(CO[C@]2(C(=O)O)C[C@H](O)[C@@H](NC(=O)CO)[C@H]([C@H](O)[C@H](O)CNC(=O)Cc3ccc(-c4ccc(O)cc4)cc3OC)O2)cc1	< 1000 nM
C#CCOc1ccc(CO[C@]2(C(=O)O)C[C@H](O)[C@@H](NC(=O)CO)[C@H]([C@H](O)[C@H](O)CNC(=O)Cc3ccc(-c4ccc(O)cc4)c(Cl)c3)O2)cc1	< 1000 nM

Value sought for every listed compound: Kd.
1. C#CCOCCOCCO[C@]1(C(=O)O)C[C@H](O)[C@@H](NC(=O)CO)[C@H]([C@H](O)[C@H](O)CNC(=O)c2ccccc2O)O1
2. C#CCOCCOCCO[C@]1(C(=O)O)C[C@H](O)[C@@H](NC(=O)CO)[C@H]([C@H](O)[C@H](O)CNC(=O)Cc2ccc(Cl)cc2)O1

Solution:
["> 10000 nM", "1000 to 10000 nM"]

Source listed as patent US20250064941A1.
